Biological target: Ubiquitin carboxyl-terminal hydrolase 19 (Homo sapiens, UniProt O94966)
Sequence (O94966 whole entry): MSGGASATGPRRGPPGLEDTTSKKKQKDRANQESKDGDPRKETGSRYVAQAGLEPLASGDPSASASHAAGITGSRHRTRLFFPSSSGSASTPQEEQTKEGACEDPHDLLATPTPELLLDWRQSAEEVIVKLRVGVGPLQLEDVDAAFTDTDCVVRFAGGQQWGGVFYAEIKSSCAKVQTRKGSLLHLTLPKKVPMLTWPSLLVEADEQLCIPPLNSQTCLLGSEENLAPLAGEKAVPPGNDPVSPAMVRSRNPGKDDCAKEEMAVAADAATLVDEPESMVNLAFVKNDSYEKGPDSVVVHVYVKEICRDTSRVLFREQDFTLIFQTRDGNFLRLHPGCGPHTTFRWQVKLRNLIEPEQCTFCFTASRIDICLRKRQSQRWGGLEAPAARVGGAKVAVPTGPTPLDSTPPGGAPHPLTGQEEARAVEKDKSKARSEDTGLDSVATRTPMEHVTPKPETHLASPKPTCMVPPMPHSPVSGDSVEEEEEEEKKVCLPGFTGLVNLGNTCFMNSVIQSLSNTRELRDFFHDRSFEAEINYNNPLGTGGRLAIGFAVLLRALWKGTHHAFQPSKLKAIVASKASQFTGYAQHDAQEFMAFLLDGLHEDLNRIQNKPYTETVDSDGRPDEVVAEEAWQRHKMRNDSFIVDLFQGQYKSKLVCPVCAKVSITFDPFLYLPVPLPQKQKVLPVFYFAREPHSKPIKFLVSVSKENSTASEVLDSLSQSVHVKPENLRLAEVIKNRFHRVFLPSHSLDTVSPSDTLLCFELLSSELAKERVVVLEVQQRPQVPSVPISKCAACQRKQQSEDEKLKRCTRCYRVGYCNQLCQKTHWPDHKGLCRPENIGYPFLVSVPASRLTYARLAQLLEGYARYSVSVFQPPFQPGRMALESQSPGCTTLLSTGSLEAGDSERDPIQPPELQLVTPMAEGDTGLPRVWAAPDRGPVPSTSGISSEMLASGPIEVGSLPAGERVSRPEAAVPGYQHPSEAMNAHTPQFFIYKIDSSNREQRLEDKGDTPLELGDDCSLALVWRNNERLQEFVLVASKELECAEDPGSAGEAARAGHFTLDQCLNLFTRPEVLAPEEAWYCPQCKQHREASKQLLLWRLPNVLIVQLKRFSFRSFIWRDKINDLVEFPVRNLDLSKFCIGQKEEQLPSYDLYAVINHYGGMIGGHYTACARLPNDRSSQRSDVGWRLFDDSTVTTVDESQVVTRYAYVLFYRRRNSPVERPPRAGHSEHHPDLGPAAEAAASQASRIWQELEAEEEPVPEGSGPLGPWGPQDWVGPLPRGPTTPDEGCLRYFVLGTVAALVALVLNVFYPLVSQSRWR
Assay: Inhibition of C-terminal His6-tagged recombinant human USP19 using iso-peptide ubiquitin-Lys-TAMRA as substrate incubated for 30 mins and measured after 90 mins by fluorescent polarization assay
Reported IC50 values are given for each entry in this list.

Reference set (3 entries):
{"compound": "O=C(N1CCC(O)(Cn2cnc3ccc(F)cc3c2=O)C2(CCCC2)C1)N1CCOC[C@H]1c1ccccc1 (some centres undefined)", "measuredTarget": "Ubiquitin carboxyl-terminal hydrolase 19 (Homo sapiens, UniProt O94966)", "propertyMeasured": "IC50", "endpointResult": "< 500 nM"}
{"compound": "O=C(NCc1cccs1)N1CC[C@@](O)(Cn2cnc(-c3ccccc3)cc2=O)C2(CCCC2)C1", "measuredTarget": "Ubiquitin carboxyl-terminal hydrolase 19 (Homo sapiens, UniProt O94966)", "propertyMeasured": "IC50", "endpointResult": "< 500 nM"}
{"compound": "C[C@H](CC1CCCCC1)C(=O)N1CCC(O)(Cn2cnc3ccc(F)cc3c2=O)C2(CCCC2)C1 (some centres undefined)", "measuredTarget": "Ubiquitin carboxyl-terminal hydrolase 19 (Homo sapiens, UniProt O94966)", "propertyMeasured": "IC50", "endpointResult": "< 500 nM"}

# next compound below
**Q:** For N[C@H]1CCN(C(=O)N2CC[C@@](O)(Cn3cnc(-c4ccccc4)cc3=O)C3(CCCC3)C2)[C@H](c2ccccc2)C1 , what is its reported IC50?
**A:** < 500 nM
